For each record, write down the corresponding pKi.
Biological target: recombinant rhesus mineralocorticoid receptor (Macaca mulatta)
Construct: made in house; host or cells: insect cells infected with recombinant baculovirus; clarified cell lysate used
Sequence (A0A5F8ATS5 1-984): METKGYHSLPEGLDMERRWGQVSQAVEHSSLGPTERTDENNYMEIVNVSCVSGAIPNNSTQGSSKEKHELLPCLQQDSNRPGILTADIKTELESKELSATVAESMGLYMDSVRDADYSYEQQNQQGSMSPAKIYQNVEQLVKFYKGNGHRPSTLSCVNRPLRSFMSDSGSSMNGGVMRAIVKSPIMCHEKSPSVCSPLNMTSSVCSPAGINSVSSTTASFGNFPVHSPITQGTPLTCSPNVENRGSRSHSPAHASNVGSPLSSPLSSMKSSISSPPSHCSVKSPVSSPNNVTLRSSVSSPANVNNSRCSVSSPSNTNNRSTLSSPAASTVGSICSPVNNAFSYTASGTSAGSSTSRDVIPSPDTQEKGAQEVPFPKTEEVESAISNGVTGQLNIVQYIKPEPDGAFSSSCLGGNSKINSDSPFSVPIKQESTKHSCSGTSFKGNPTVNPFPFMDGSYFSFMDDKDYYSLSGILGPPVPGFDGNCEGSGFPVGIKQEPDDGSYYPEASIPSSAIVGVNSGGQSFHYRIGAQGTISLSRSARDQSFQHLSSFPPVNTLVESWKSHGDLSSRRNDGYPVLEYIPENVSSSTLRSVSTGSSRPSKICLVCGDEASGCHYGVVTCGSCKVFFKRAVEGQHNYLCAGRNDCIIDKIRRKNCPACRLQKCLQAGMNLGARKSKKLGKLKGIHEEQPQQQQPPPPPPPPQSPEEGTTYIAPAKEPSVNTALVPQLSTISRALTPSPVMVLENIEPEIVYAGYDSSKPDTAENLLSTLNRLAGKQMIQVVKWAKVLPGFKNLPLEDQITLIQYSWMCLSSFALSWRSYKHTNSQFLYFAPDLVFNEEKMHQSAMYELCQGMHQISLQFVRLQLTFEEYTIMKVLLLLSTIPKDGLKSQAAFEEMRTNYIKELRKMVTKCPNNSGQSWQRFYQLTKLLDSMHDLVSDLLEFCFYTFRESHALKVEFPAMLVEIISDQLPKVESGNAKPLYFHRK
Assay: Mineralocorticoid receptor radioligand ([3H]-aldosterone) filter binding assay
Conditions: displacement of [3H]-aldosterone, insect cell lysate, 20° C., read-out: Mineralocorticoid receptor binding affinity Ki
The quantity pKi is defined as the negative base-10 logarithm of the molar concentration.

Recorded pKi (compound `Clc1cc2c(cc1Cn1ccnc1C(c1ccccc1)c1ccccc1)OCO2` ): 5.95

Lookup result for `Nc1cccc(Cn2ccnc2C(c2ccccc2)c2ccccc2)c1` ; measured pKi: 6.20

The compound `COc1ccc(Cn2ccnc2C(c2ccccc2)c2ccccc2)cc1` showed pKi equal to 5.58

The compound CC(c1cc(Cl)cc(Cl)c1)n1ccnc1C(c1ccccc1)c1ccccc1 (stereo not drawn) showed pKi equal to 6.53

Form: compound = `c1ccc(Cn2c(C(c3ccccc3)c3ccccc3)nc3ccccc32)cc1` ; pKi = 6.02

Entry under test: CC(c1ccccc1)n1c(C(c2ccccc2)c2ccccc2)nc2ccccc21 (stereo not drawn) . Its pKi was 5.68

Item: `O=[N+]([O-])c1cccc(Cn2ccnc2C(c2ccccc2)c2ccccc2)c1` | pKi: 6.23

// field: pKi; key: CC(c1ccccc1)n1ccnc1C(c1ccccc1)c1ccccc1 (racemic) ; value = 5.54

The recorded pKi for `FC(F)(F)c1cc(Cn2ccnc2C(c2ccccc2)c2ccccc2)cc(C(F)(F)F)c1` is 5.87
